test system: Aspergillus flavus; assay: checkerboard drug interaction (FICI, MICc);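 further: simplified diagonal checkerboard screen pairing azole antifungals with FPPS inhibitors, FICI calculated under the Loewe additivity model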; assay type: cell-based; design: unit not given beside the values; conditions: A. flavus; MIC of the inhibitor in combination with ketoconazole
Think of 30 as a floor: if INH MICc (KET:INH) stands on it or above, it is YES; beneath it, NO.

Molecule	Category Label
CCCCCCCCCCCCN1CCC[C@H]1C(=O)N[C@H](CC(=O)OC)C(=O)OC	NO
CCCCCCCCCCN1CCC[C@H]1C(=O)N[C@@H](CC(=O)OC)C(=O)OC	YES
CCCCCCCCCCn1cc[n+](CC(O)(P(=O)(O)O)P(=O)(O)O)c1 [10-ZOL, Decyl-zoledronate]	NO
CCCCCCCCCCCCN1CCC[C@H]1C(=O)N[C@@H](CC(=O)OC)C(=O)OC	NO
CCCCCCCCCCCN1CCC[C@H]1C(=O)N[C@@H](CC(=O)OC)C(=O)OC	YES

Kindly consider the entry below.
Qu. Can `CCCCCCCCCCCN1CCC[C@H]1C(=O)N[C@@H](CC(=O)O)C(=O)O` be said to have INH MICc (KET:INH) at or above 30?
Ans. YES

---

tested on: Cryptococcus neoformans; assay: checkerboard drug interaction (FICI, MICc); type: cell-based; settings: C. neoformans; KET:INH combination; MIC of the inhibitor in combination with KET
Recorded Endpoint: INH MICc
Answers are plain numbers.

Please review the following examples before continuing.
Compound	INH MICc
CCCCCCCCCCCN1CCC[C@H]1C(=O)N[C@H](CC(=O)OC)C(=O)OC	64
CCCCCCCCCN1CCC[C@H]1C(=O)N[C@H](CC(=O)OC)C(=O)OC	128
CCCCCCCCCCn1cc[n+](CC(O)(P(=O)(O)O)P(=O)(O)O)c1 [10-ZOL, Decyl-zoledronate]	0.063
CCCCCCCCCCCN1CCC[C@H]1C(=O)N[C@@H](CC(=O)O)C(=O)O	128
CCCCCCCCCCCN1CCC[C@H]1C(=O)N[C@@H](CC(=O)OC)C(=O)OC	32

For each listed entry, give its INH MICc.
1. CCCCCCCCCN1CCC[C@H]1C(=O)N[C@@H](CC(=O)O)C(=O)O
2. CCCCCCCCCCCN1CCC[C@H]1C(=O)N[C@H](CC(=O)O)C(=O)O

Ans.
[128, 128]

For each listed entry, give its INH MICc.
1. CCCCCCCCCCCCN1CCC[C@H]1C(=O)N[C@H](CC(=O)O)C(=O)O
2. CCCCCCCCCN1CCC[C@H]1C(=O)N[C@H](CC(=O)O)C(=O)O
3. O=P(O)(O)C(O)(Cn1ccnc1)P(=O)(O)O [ZOL, zoledronate]
4. CCCCCCCCCCN1CCC[C@H]1C(=O)N[C@@H](CC(=O)OC)C(=O)OC
5. CCCCCCCCCCN1CCC[C@H]1C(=O)N[C@H](CC(=O)OC)C(=O)OC
6. CCCCCCCCCN1CCC[C@H]1C(=O)N[C@@H](CC(=O)OC)C(=O)OC
7. CCCCCCCCCCCCN1CCC[C@H]1C(=O)N[C@@H](CC(=O)OC)C(=O)OC
8. CCCCCCCCCCCCN1CCC[C@H]1C(=O)N[C@H](CC(=O)OC)C(=O)OC

Ans.
128
128
4
8
8
64
8
8
